Test system: PDGFR
Experiment Summary: Rat A10 cell proliferation assay
Assay type: cell-based
Applied Conditions: Rat A10 cells, 1% FBS, 10 ng/mL recombinant rat PDGF-BB, 68 hours with compound, CellTiter-Glo luminescence
Where a name gives a salt, the structure may show the parent alone.
Recorded measurements of IC50, one per entry
The number alone won't do; follow it with the unit.

- CC(C)(CO)NC(=O)c1ccc(-c2ccn3c(C(=O)Nc4cc(C(=O)NCCN5CCCC5(C)C)ccc4F)cnc3c2)cc1F: 0.008 µM
- CC(C)(O)CCc1ccn2c(C(=O)Nc3cc(C(=O)NCc4ccc(F)c(F)c4)ccc3F)cnc2c1: 0.041 µM

Find the measured IC50 of O=C(NCc1ccc(F)c(F)c1)c1ccc(F)c(NC(=O)c2cnc3cc(-c4ccc(OCCN5CCCC5)nc4)ccn23)c1 [Example 3.1, hydrochloride] and report it. 0.013 µM

----------
Test system: PDGFR
Experiment Summary: Rat A10 cell proliferation assay
Type: cell-based
Applied Conditions: Rat A10 cells, 1% FBS, 10 ng/mL recombinant rat PDGF-BB, 68 hours with compound, CellTiter-Glo luminescence
Counter-ions that a name gives are not always drawn.
Recorded measurements of IC50, one per entry
Give a bare numeral; the unit nM is implied.

Completed entries (count: 5):
- Cc1ncc(C(=O)NCCN2CCCCC2(C)C)cc1NC(=O)c1cnn2cc(-c3cnn(C)c3)ccc12: 7
- O=C(NCc1ccc(F)c(F)c1)c1ccc(F)c(NC(=O)c2cnc3cc(-c4ccc(C(=O)NCCCN5CCOCC5)c(F)c4)ccn23)c1 [Example 8.1, hydrochloride]: 4
- COCCN(C)Cc1cncc(-c2ccn3c(C(=O)Nc4cc(C(=O)NC[C@H]5CCC(C)(C)O5)ccc4F)cnc3c2)c1: 16
- CCCC1CCN(CCNC(=O)c2ccc(F)c(NC(=O)c3cnc4cc(-c5cnn(C)c5)ccn34)c2)C1 (stereo not shown): 11
- CN1CCN(c2ccccc2CNC(=O)c2ccc(F)c(NC(=O)c3cnc4cc(-c5cc(F)cc(C(=O)NCCO)c5)ccn34)c2)CC1: 112

Find the measured IC50 of C[C@@H]1CCC[C@H](C)N1CCNC(=O)c1ccc(F)c(NC(=O)c2cnc3cc(-c4ccc(C(=O)NC(C)(C)CO)c(F)c4)ccn23)c1 and report it. 8

Find the measured IC50 of CC1CC(C)CN(CCNC(=O)c2ccc(F)c(NC(=O)c3cnc4cc(-c5cnn(C)c5)ccn34)c2)C1 (stereo not shown) and report it. 128

----------
Recorded measurements of IC50, one per entry
Test system: PDGFR
Experiment Summary: Rat A10 cell proliferation assay
Format: cell-based
Applied Conditions: Rat A10 cells, 1% FBS, 10 ng/mL recombinant rat PDGF-BB, 68 hours with compound, CellTiter-Glo luminescence
Counter-ions that a name gives are not always drawn.
Give a bare numeral; the unit nM is implied.

Completed entries (count: 3):
* CN(C)CCCOc1ccc(-c2ccn3c(C(=O)Nc4cc(C(=O)NCCOC(C)(C)C)ccc4F)cnc3c2)cn1 | 3
* CN1CCN(c2ccccc2CNC(=O)c2ccc(F)c(NC(=O)c3cnc4cc(-c5ccc(C(=O)NCCO)c(F)c5)ccn34)c2)CC1 | 40
* CN1CCC(Oc2ccc(-c3ccn4c(C(=O)Nc5cc(C(=O)NCC6CCC(C)(C)O6)ccc5F)cnc4c3)cn2)CC1 (stereo not shown) | 10

Report value: IC50, system: PDGFR, compound: C[C@@H]1CCC[C@H](C)N1CCNC(=O)c1ccc(F)c(NC(=O)c2cnc3cc(-c4cnn(C)c4)ccn23)c1 [Example 1.20, hydrochloride] 13

Report value: IC50, system: PDGFR, compound: CC(C)(C)OCCNC(=O)c1ccc(F)c(NC(=O)c2cnc3cc(-c4ccc(OCCN5CCCC5)nc4)ccn23)c1 15

Report value: IC50, system: PDGFR, compound: Cc1ccc(C(=O)NCc2ccccc2N2CCN(C)CC2)cc1NC(=O)c1cnn2cc(-c3ccnn3C)ccc12 [Example 4.1, hydrochloride] 12

Report value: IC50, system: PDGFR, compound: CC[C@@H]1CN(CCNC(=O)c2ccc(F)c(NC(=O)c3cnc4cc(-c5cnn(C)c5)ccn34)c2)[C@H]1CC 2
